target: SERCA2 (Homo sapiens, UniProt P16615); construct: endogenous in cells; assay: NADH-coupled ATPase assay on microsomal membrane vesicles from HEK-293T cells (HEK-293 ER); details: ATPase activity; value; interval; read-out: SERCA2a HEK ER (EC50)
Sequence (P16615 whole entry): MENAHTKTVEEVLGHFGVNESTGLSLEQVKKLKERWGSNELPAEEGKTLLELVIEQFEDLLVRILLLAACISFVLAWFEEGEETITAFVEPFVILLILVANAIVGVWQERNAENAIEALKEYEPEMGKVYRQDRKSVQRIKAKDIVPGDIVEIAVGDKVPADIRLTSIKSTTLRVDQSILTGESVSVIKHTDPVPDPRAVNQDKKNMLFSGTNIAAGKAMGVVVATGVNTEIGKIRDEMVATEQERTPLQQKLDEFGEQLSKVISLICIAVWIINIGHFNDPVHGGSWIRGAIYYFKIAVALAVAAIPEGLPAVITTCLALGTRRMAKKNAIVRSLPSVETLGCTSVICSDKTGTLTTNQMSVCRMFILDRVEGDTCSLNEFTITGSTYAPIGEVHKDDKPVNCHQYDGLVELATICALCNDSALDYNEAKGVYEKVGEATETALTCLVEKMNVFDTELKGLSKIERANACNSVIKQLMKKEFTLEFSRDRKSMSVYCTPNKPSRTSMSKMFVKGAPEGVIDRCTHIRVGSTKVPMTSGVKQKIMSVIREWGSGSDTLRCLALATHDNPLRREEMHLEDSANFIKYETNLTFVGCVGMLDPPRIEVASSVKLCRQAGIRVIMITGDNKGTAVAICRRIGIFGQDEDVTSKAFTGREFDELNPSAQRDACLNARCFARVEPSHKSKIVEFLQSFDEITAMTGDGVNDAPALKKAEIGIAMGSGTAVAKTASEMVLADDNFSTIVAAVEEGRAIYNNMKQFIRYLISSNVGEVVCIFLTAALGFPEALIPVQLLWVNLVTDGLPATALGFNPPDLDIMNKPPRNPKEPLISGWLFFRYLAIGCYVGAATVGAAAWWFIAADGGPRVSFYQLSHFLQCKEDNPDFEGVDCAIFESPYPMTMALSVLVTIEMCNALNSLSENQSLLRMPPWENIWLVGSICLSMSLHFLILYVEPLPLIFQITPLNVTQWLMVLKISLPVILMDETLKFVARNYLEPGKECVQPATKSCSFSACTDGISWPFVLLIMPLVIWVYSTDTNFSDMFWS
attributeMeasured: EC50
Please provide the amount together with its unit, number first.

QUERY: What value of EC50 has been reported for the following compound? COc1ccc2c(c1)CN(CCCCN(CCCCC1(O)CC1)CCCCC1(O)CC1)CCS2 [12a]
RESULT: 16 nM

###

molecular target: SERCA2a (Mus musculus, UniProt O55143); construct: host or cells: HL-1 cells; test: Caffeine-induced Ca2+ release assay in HL-1 cells (FLIPR Calcium 6); assay type: cell-based; settings: HL-1 cells, 10 mM caffeine; value; interval
Sequence (O55143 1-998 isoform O55143-2): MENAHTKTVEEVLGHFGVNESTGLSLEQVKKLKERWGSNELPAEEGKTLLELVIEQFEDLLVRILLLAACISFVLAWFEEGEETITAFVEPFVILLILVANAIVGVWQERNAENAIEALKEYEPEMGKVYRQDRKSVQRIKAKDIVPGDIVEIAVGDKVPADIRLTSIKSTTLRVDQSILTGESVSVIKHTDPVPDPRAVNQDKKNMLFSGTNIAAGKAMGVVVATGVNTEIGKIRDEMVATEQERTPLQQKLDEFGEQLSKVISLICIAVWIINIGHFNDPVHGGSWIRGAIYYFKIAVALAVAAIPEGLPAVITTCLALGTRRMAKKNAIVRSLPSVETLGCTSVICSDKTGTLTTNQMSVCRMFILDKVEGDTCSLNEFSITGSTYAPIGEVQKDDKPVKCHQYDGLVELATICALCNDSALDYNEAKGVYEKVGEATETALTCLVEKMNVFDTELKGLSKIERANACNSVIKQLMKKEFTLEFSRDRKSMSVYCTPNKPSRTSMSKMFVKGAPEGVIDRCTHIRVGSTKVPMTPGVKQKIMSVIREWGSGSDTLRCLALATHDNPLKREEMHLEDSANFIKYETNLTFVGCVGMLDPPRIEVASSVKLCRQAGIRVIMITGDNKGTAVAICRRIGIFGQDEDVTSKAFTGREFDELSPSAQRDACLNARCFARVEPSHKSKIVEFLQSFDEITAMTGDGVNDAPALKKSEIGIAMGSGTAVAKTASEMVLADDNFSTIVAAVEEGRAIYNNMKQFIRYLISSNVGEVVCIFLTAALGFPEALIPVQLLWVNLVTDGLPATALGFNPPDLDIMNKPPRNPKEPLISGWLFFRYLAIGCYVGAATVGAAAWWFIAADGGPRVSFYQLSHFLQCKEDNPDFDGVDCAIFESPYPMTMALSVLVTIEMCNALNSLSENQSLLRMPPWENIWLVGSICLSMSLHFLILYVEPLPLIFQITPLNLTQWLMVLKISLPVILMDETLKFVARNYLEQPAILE
attributeMeasured: pEC50
Reminder that pEC50 means the negative base-10 logarithm of the concentration expressed in mol/L.

QUERY: Identify the measured pEC50 of COc1ccc2c(c1)CN(CCCCN(CCCCC1(O)CC1)CCCCC1(O)CC1)CCS2 [12a] for SERCA2a (Mus musculus, UniProt O55143).
RESULT: 5.04

###

assay: Membrane permeability, PermeaPad Plate (cell-free transport model); format: in vitro ADME; conditions: 24 h, room temperature
attributeMeasured: Pe

Example results:
| compound | Pe |
| --- | --- |
| COc1ccc(SCCCNCCCCC2(O)CC2)cc1 [11c] | 6.9 10^–6 cm/s |
| COc1ccc2c(c1)CN(CCCCN(CCCCC1(O)CC1)CCCCC1(O)CC1)CCS2 [12a] | 0.6 10^–6 cm/s |
| COc1ccc2c(c1)CN(Cc1ccc(C(=O)O)cc1)CCS2 [ARM210, reference compound] | 6.8 10^–6 cm/s |
| COc1ccc2c(c1)CN(C(=O)C(=O)O)CCS2 [S36, reference compound] | 1.0 10^–6 cm/s |
| COc1ccc2c(c1)CN(CCCCC1(O)CC1)CCS2 [11d] | 3.6 10^–6 cm/s |
| COc1ccc2c(c1)CN(C)CCS2 [S107, reference compound] | 1.2 10^–6 cm/s |

QUERY: What value of Pe has been reported for the following compound? COc1ccc(OCCCNCCCCC2(O)CC2)cc1 [11b]
RESULT: 4.0 10^–6 cm/s

QUERY: What value of Pe has been reported for the following compound? COc1ccc2c(c1)CN(CCCCNCCCCC1(O)CC1)CCS2 [11a]
RESULT: 0.8 10^–6 cm/s

QUERY: What value of Pe has been reported for the following compound? COc1ccc(SCCCN(CCCCC2(O)CC2)CCCCC2(O)CC2)cc1 [12c]
RESULT: 3.6 10^–6 cm/s

###

molecular target: SERCA2a (Mus musculus, UniProt O55143); construct: host or cells: HL-1 cells; assay: Caffeine-induced Ca2+ release assay in HL-1 cells (FLIPR Calcium 6); format: cell-based; settings: 10 μM (25 μM for 11d), caffeine assay
attributeMeasured: SERCA2a HL-1 effect class

| compound | SERCA2a HL-1 effect class |
| --- | --- |
| COc1ccc2c(c1)CN(CCCCC1(O)CC1)CCS2 [11d] | + |
| COc1ccc(OCCCNCCCCC2(O)CC2)cc1 [11b] | ++ |
| COc1ccc(SCCCNCCCCC2(O)CC2)cc1 [11c] | ++ |
| COc1ccc2c(c1)CN(CCCCNCCCCC1(O)CC1)CCS2 [11a] | + |
| COc1ccc2c(c1)CN(Cc1ccc(C(=O)O)cc1)CCS2 [ARM210, reference compound] | + |

Now for another entry.
QUERY: What value of SERCA2a HL-1 effect class has been reported for the following compound? COc1ccc2c(c1)CN(CCCCN(CCCCC1(O)CC1)CCCCC1(O)CC1)CCS2 [12a]
RESULT: ++

Data provenance is paper PMC10726367.
